Measured target: Orexin/Hypocretin receptor type 1 (Rattus norvegicus)
Sequence (P56718 whole entry): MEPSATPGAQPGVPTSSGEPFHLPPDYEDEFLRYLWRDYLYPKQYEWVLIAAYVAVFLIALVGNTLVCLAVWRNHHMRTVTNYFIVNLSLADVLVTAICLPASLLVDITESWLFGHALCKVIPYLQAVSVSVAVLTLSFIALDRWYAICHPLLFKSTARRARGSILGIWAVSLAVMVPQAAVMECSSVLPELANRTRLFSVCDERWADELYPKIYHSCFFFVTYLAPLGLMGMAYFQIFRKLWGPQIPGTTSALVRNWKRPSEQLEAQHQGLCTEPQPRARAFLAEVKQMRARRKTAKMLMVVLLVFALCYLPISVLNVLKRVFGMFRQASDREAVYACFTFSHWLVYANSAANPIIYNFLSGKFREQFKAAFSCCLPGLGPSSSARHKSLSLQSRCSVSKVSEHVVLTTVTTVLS
Assay procedure: Antagonist activity at recombinant rat OX1R expressed in CHO cells by FLIPR calcium based functional assay
Readout label: Ki (nM)
Value expressed in nM; do not type the unit.

May I ask what Ki has been recorded for Cc1nc(C(=O)N2CCCC[C@H]2CNC(=O)c2cccc3occc23)c(-c2ccc(F)cc2)s1 [SB-649868] ? 0.117

----------
Assay procedure: Cmax in CD rat at 1 mg/kg, iv and 3 mg/kg, po
Assay type: ADME, organism-based
Experimental context: in vivo
Readout label: Cmax (ng/mL)
Value expressed in ng/mL; do not type the unit.

May I ask what Cmax has been recorded for "Cc1nc(C(=O)N2CCCC[C@H]2CNC(=O)c2cccc3occc23)c(-c2ccc(F)cc2)s1" ? 333

----------
// reported pKi per item
Measured target: Orexin receptor type 2 (Homo sapiens, UniProt O43614)
Sequence (O43614 whole entry): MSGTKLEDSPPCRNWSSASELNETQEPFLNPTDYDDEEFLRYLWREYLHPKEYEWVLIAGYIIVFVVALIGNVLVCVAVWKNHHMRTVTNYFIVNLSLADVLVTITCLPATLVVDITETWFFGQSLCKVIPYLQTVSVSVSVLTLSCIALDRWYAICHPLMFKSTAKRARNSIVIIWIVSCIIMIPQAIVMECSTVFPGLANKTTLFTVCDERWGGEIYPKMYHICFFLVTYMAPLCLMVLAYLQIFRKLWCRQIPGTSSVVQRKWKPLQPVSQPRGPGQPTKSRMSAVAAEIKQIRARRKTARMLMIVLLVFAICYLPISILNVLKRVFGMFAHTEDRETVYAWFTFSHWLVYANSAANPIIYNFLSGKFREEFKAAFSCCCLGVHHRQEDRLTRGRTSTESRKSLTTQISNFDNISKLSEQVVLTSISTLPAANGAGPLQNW
Assay procedure: Antagonist activity at recombinant human OX2R expressed in CHO cells by FLIPR calcium based functional assay
Assay type: cell-based
API: returns pKi as number; meaning -log10 of concentration in mol/L.

In [3]: df
Out[3]:
                                   compound  obs_value
0  O=C(c1ccccc1-c1ccccc1)N1CCCCC1CCOc1ccc(F)cc1 (racemic)       7.70
1  O=C(NC[C@@H]1CCCCN1C(=O)c1ccccc1-c1ccccc1)Nc1ccccc1       8.30

May I ask what pKi has been recorded for COc1cccc(C(=O)N2CCCCC2CCOc2ccc(Cl)c(Cl)c2)c1 (racemic) ? 6.30

----------
Assay procedure: Ratio of drug level in brain to blood in CD rat at 1 mg/kg, iv after 1 hrs
Type: ADME, organism-based
Parameters: dose 1 mg/kg, route intravenous
Experimental context: read-out: BBR
Readout label: Kp at 1 h

May I ask what Kp at 1 h has been recorded for Cc1nc(C(=O)N2CCCC[C@H]2CNC(=O)c2cccc3occc23)c(-c2ccc(F)cc2)s1 [SB-649868] ? 0.1

----------
Measured target: Orexin receptor type 2 (Rattus norvegicus)
Sequence (P56719 whole entry): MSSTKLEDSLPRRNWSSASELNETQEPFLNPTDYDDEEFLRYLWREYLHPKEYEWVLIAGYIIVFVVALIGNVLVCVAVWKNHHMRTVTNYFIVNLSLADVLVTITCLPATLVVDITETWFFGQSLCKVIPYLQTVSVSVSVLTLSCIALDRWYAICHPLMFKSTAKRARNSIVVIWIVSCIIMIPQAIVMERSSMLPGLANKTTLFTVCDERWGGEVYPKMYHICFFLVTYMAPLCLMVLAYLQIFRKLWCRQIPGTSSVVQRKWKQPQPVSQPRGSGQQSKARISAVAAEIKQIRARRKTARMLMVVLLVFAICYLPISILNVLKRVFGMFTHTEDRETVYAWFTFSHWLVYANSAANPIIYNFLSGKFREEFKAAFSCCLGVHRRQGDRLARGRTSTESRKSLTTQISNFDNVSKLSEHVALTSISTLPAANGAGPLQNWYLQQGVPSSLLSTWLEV
Assay procedure: Antagonist activity at recombinant rat OX2R expressed in CHO cells by FLIPR calcium based functional assay
Readout label: pKi
API: returns pKi as number; meaning -log10 of concentration in mol/L.

Entry Cc1nc(C(=O)N2CCCC[C@H]2CNC(=O)c2cccc3occc23)c(-c2ccc(F)cc2)s1 [SB-649868] , system Orexin receptor type 2 (Rattus norvegicus): what pKi was measured? 10.11

----------
Assay procedure: Half life in CD rat at 1 mg/kg, iv and 3 mg/kg, po
Assay type: ADME, organism-based
Experimental context: in vivo
Readout label: half-life

May I ask what half-life has been recorded for Cc1nc(C(=O)N2CCCC[C@H]2CNC(=O)c2cccc3occc23)c(-c2ccc(F)cc2)s1 [SB-649868] ? < 36 min

----------
// reported Ki per item
Measured target: Orexin receptor type 2 (Homo sapiens, UniProt O43614)
Assay procedure: Antagonist activity at recombinant human OX2R expressed in CHO cells by FLIPR calcium based functional assay
Format: cell-based
Value expressed in nM; do not type the unit.

Recorded results for 6 compounds are shown here.
                                   compound  readout_label  obs_value
0  O=C(NC[C@@H]1CCCCN1C(=O)c1ccccc1-c1ccccc1)c1ccc(F)cc1             Ki      0.251
1  O=C(NC[C@H]1CCCCN1C(=O)c1ccccc1-c1ccccc1)c1ccc(F)cc1             Ki       31.6
2  N#Cc1cccc(C(=O)N2CCCCC2CCOc2ccc(Cl)c(Cl)c2)c1 (racemic)             Ki        631
3  O=C(CC[C@@H]1CCCCN1C(=O)c1ccccc1-c1ccccc1)c1ccccc1             Ki         20
4  O=C(c1ccccc1-c1ccccc1)N1CCCC[C@H]1CCOc1ccc(F)cc1F             Ki      0.794
5  CN(C[C@@H]1CCCCN1C(=O)c1ccccc1-c1ccccc1)C(=O)c1ccc(F)cc1             Ki       1260

Entry "O=C(C[C@@H]1CCCCN1C(=O)c1ccccc1-c1ccccc1)Nc1ccccc1" , system Orexin receptor type 2 (Homo sapiens, UniProt O43614): what Ki was measured? 31.6

// repeat for "O=C(c1cccc2ccccc12)N1CCCC[C@H]1CCOc1ccc(F)cc1" and report 126

// repeat for "O=C(NC[C@@H]1CCCCN1C(=O)c1ccccc1-c1ccccc1)c1ccccc1" and report 20
